Tested on: LOX IMVI melanoma
Assay: NCI-60 one-dose screen, 48 h (100 = growth as untreated, 0 = no growth, -100 = all killed)
Settings: 10 µM
About 83,000 compounds went through this panel and 20% of them were active in at least one assay; those are over-represented in the sample as a whole.
As shown below, each of these molecules has a reported growth value.
# value in %; strip the unit string

Solved entries:
CN1CCN(c2ccc(Nc3nc(N4CCN(S(=O)(=O)c5ccc(Cl)cc5)CC4)c4sccc4n3)cc2)CC1 | -90.1
Cc1cccc(-c2nc(Nc3ccccc3C(=O)O)c3ccccc3n2)c1 | 36.4
COc1cc(/C=C/C(=O)c2ccc(S(=O)(=O)NCCNc3nc(Nc4ccc(F)cc4)nc(N(C)C)n3)cc2)cc(OC)c1OC | -100
CC(=O)c1cc(C(=O)N2c3ccccc3Sc3ccccc32)n2ccc(C)cc12 | -40
O=c1oc2ccc(-c3ccc(F)cc3F)cc2c(=O)n1-c1ccc(F)c(Cl)c1 | -69.9
Brc1ccc(N/N=C/c2c[nH]c3ccccc23)nc1 | -2.43

Now consider the entry below.
The recorded growth for CC[C@]12C=CCN3CC[C@@]4(c5cc(C#CCNc6ccc(C)c(Nc7nccc(-c8cccnc8)n7)c6)c(OC)cc5N(C)[C@H]4[C@@](O)(C(=O)OC)[C@@H]1OC(C)=O)C32 (some centres undefined) is 38.6

* * *

System: MCF7 breast
Experiment: NCI-60 one-dose screen, 48 h (100 = growth as untreated, 0 = no growth, -100 = all killed)
Settings: 10 µM
The panel holds about 83,000 compounds, 20% with a hit somewhere; the sample as a whole holds those more often.
As shown below, each of these compounds has a reported growth value.
# value in %; strip the unit string

Solved entries:
Cc1ccc(S(=O)(=O)c2nc(-c3ccccc3)oc2S(=O)(=O)CC(=O)N2CCCC2)cc1 | -40.7
C=CCn1c(SCC(=O)Nc2ccc(C(=O)/C=C/c3ccccc3)cc2)nnc1-c1c[nH]c2ccccc12 | -67.7
CCCn1c(=O)c2[nH]c(-c3ccc(OCc4nc5ccccc5[nH]4)cc3)nc2n(CCC)c1=O | 17.4
COc1ccc(-c2cc(-c3cc(C(=O)c4ccccc4)n4ccc(C)cc34)nc(N)c2C#N)cc1 | 53.3
CN1CCc2c(sc3ncnc(N/N=C/c4ccc5ccccc5c4)c23)C1 | 20.7

The recorded growth for Cc1cccc2cc(-c3cc(-c4ccccc4)nc(=S)[nH]3)c(Cl)nc12 is 68.3

The recorded growth for Cc1ccc([N+](=O)[O-])c(C(=O)Nc2ccc(-c3ccc4c(c3)NC(=O)/C4=C\c3ccc[nH]3)cc2)c1 is -47.7

The recorded growth for C=CC(=O)Nc1nc(-c2cccc(NS(=O)(=O)c3cccc4c(N(C)C)cccc34)c2)cs1 is -82.1

The recorded growth for CC(=C(c1ccc(OCCCN(C)C)cc1)c1ccc(OCCCN(C)C)cc1)c1ccccc1 is -82.2

* * *

Tested on: OVCAR-8 ovarian
Assay: NCI-60 one-dose screen, 48 h (100 = growth as untreated, 0 = no growth, -100 = all killed)
Conditions: 10 µM
Experimental: Growth inhibition of the OVCAR-8 human tumor cell line is measured as a screen for anti-cancer activity. Cells are grown in 96 well plates and exposed to the test compound for 48 hours. Compounds are tested at a single concentration, which is 10^-5 M for most compounds. The reported endpoint is percent growth (GI% or GIPRCNT), where numbers from 0 - 100% represent growth inhibition, and numbers from -100% - 0 represent cell death. For example, a value of 40 represents 60% growth inhibition. […]
Compounds without any hit were thinned out: in the full panel of roughly 83,000, 20% have a hit.
As shown below, each of these compounds has a reported growth value.
# value in %; strip the unit string

Solved entries:
O=C(Nc1nc2ccc([N+](=O)[O-])cc2s1)Nc1cc(Cl)ccc1I | -13.6
Cc1ccc2nc(-c3ccc(-c4nnc(SCC(=O)Nc5ccc(Cl)cc5)o4)cc3)[nH]c2c1 | -11.8
N[C@@H](CSSC[C@H](N)C(=O)Nc1ccc(OCC2CCCC2)cc1)C(=O)Nc1ccc(OCC2CCCC2)cc1 | -59.8
COc1cc(/C=C/C(=O)c2ccc(NC(=O)CSc3nnc(-c4c[nH]c5ccccc45)n3-c3ccccc3)cc2)cc(OC)c1OC | 50.1

The recorded growth for CCC(C)S(=O)(=O)c1oc(-c2ccc(C)cc2)nc1S(=O)(=O)c1ccccc1 (centres undefined) is -65.8

The recorded growth for O=C1NC(=NC23CC4CC(CC(C4)C2)C3)N/C1=C\c1ccc2ncoc2c1 is 13.4

The recorded growth for COc1ccc(C(C)=C(c2ccc(OCCCN(C)C)cc2)c2ccc(OCCCN(C)C)cc2)cc1 is -92.6

The recorded growth for O=C(Cn1nc(-c2ccccc2)ccc1=O)NNC(=S)NC1CCCCC1 is 112

* * *

Tested on: UACC-257 melanoma
Assay: NCI-60 one-dose screen, 48 h (100 = growth as untreated, 0 = no growth, -100 = all killed)
Conditions: 10 µM
Compounds without any hit were thinned out: in the full panel of roughly 83,000, 20% have a hit. Calls of active or inactive are those of the source. How the source made its calls: active means growth percent below 10; inactive means the rest.
recorded endpoint: growth

Solved entries:
CCOC(=O)C1=C(N)N(c2ccccc2)C2=C(C(=O)CC(C)(C)C2)C1c1ccc(Cl)cc1 (centres undefined) | 28% (inactive)
COc1cc(/C=C/C(=O)c2ccc(S(=O)(=O)NCCNc3nc(Nc4ccc(F)cc4)nc(N(C)C)n3)cc2)cc(OC)c1OC | 71.6% (inactive)
C=C1CCC2C3(C)COC(c4c(F)cccc4F)OC3CCC2(C)C1CC(O)C1=CCOC1=O (centres undefined) | 74.1% (inactive)
Cc1nc(Nc2nc(C)c3ccc(OCCN4CCOCC4)cc3n2)[nH]c(=O)c1C | -14.9% (active)
CCCn1c(=O)c2[nH]c(-c3ccc(OCc4nc5ccccc5[nH]4)cc3)nc2n(CCC)c1=O | 82.3% (inactive)

Now consider the entry below.
The recorded growth for O=C(c1ccc(O)cc1)C1[C@H](c2ccccc2Br)[C@@H](c2ccccc2)NC12C(=O)Nc1ccc(Br)cc12 (some centres undefined) is 65.4% (inactive)

* * *

Tested on: CAKI-1 renal
Assay: NCI-60 one-dose screen, 48 h (100 = growth as untreated, 0 = no growth, -100 = all killed)
Conditions: 10 µM
This is part of a sample that, as a whole, favours compounds with a hit. Of some 83,000 tested, about 20% had one in any assay.
recorded endpoint: growth (%)
# value in %; strip the unit string

CC(C)(C)c1ccc(NCc2cn(-c3ccc(C(=O)O)cc3)nc2-c2ccc(C#N)cc2)cc1 | 34.4

The recorded growth for COc1ccc(C=CC(=O)c2ccc(-n3c(C)nc4c(cnn4-c4ccccc4)c3=O)cc2)cc1 is 75

The recorded growth for Oc1ccc(/C=C2\CCCc3cc4ccc(O)cc4[o+]c32)c(O)c1 is 40.2

The recorded growth for COc1ccc(/C=C/C(=O)c2ccc(S(=O)(=O)NCCNc3nc(Nc4ccc(F)cc4)nc(N(C)C)n3)cc2)cc1 is 27.4

The recorded growth for O=C1NC(=NC2CCCCCC2)N/C1=C\c1ccc2ncoc2c1 is 10

The recorded growth for COC[C@@H](CC(C)C)N=C1NC(=O)/C(=C/c2ccc3ncsc3c2)N1 is 4.39

The recorded growth for O/N=C(\CSc1nnc(-c2c[nH]c3ccccc23)n1-c1ccccc1)c1ccc(Br)cc1 is -94.3

The recorded growth for CCOc1ccc(/C=N/NC(=O)Cn2nc(Cc3ccc([N+](=O)[O-])cc3)c3onc(C)c3c2=O)cc1 is -9.88

The recorded growth for CCOc1ccc(/C=N/NC(=O)Cn2nc(Cc3ccccc3)c3onc(C)c3c2=O)cc1 is 12

The recorded growth for CCN1CCN(Cc2ccc(NC(=O)c3cccc(-n4cc(-c5ccc(NC(C)=O)nc5)nn4)c3)cc2C(F)(F)F)CC1 is 88.9

The recorded growth for O=C(/C=C/Nc1ccc(F)cc1F)c1ccc2c(c1)Nc1ccccc1S2 is 83.9

The recorded growth for O=C(c1ccc(O)cc1)C1[C@H](c2ccccc2Br)[C@@H](c2ccccc2)NC12C(=O)Nc1ccc(Br)cc12 (some centres not stated) is 24.1

The recorded growth for COc1ccc(CN2[C@@H](C(=O)NCc3ccc(C(=O)NO)cc3)Cc3c([nH]c4ccccc34)[C@@H]2C2CC2)cc1 is 22.5

The recorded growth for COc1ccc(N(C)c2cc(C#N)nc3ccccc23)cc1/C=C/C(=O)NO is -19.2

The recorded growth for O=C(CSc1nnc(-c2ccc3nc(-c4ccc(Cl)cc4)[nH]c3c2)o1)Nc1ccc(Cl)cc1 is -35.6

The recorded growth for CC(=O)Nc1ccc(-c2cn(-c3cccc(C(=O)Nc4ccc(Cl)c(C(F)(F)F)c4)c3)nn2)cn1 is -27.8

The recorded growth for CN1CCN(c2ccc(Nc3nc(N4CCN(S(=O)(=O)c5ccc(F)cc5)CC4)c4sccc4n3)cc2)CC1 is -96.3

The recorded growth for N#Cc1c(Cl)nc(SCc2ccc(F)cc2)nc1-c1ccc(F)cc1 is 94.9

The recorded growth for COc1cc(NC(=O)c2cc(-c3ccc(F)cc3F)ccc2O)cc(OC)c1OC is 30.6
